Give peptide exchange yield for every item shown.
molecular target: HLA-A*24 (human); assay: UV-ligand exchange ELISA

// below: answered binders
>>> df
                                 binder  value_observed
0   RYPDNLKHLYL [peptide SEQ ID No 280]           > 75%
1     QYLENLEKL [peptide SEQ ID No 224]       50 to 75%
2  IYDDSFIRPVTF [peptide SEQ ID No 180]       50 to 75%
3     QYLQDAYSF [peptide SEQ ID No 272]           > 75%
4    TYTTVPRVAF [peptide SEQ ID No 172]           > 75%
5     LYNKGFIYL [peptide SEQ ID No 159]           > 75%

I'm hoping you can list peptide exchange yield for every binder here, please.
1. IYSWILDHF [peptide SEQ ID No 173]
2. VFTRVSSFL [peptide SEQ ID No 162]

Output:
> 75%
50 to 75%

Taken from patent US20170189507A1.
